System Tested: GRASP, Q7Z6J2
Sequence (Q7Z6J2 96-193): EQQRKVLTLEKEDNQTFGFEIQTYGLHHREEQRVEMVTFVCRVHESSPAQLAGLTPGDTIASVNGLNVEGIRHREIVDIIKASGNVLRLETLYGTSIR
Assay Info: holdup assay
Set-up: key: below the threshold = too weak to quantify, mostly under pKd 3.1 to 4
Stated Conditions: plain residues with an end cap or a label only (N-terminal biotin on a linker: ado-ado)

Binder: HLRARKSEWV [GJD4, Q96KN9]
pKd: 4.01
--
Binder: MLSKQSESAI [FLVCR1, Q9Y5Y0]
pKd: below the threshold
--
Binder: TSQESEDTYL [TBC1D10A, Q9BXI6]
pKd: below the threshold
--
Binder: VKPQVSESKL [ACOT8, O14734]
pKd: below the threshold
--
Binder: DTTVPESEDL [MYOZ2, Q9NPC6]
pKd: below the threshold
--
Binder: SARSRLSSNL [HCN2, Q9UL51]
pKd: 4
--
Binder: QSPANIYYKV [EFNB1, P52799]
pKd: below the threshold
--
Binder: QGPVETESVV [SLC45A4, Q5BKX6]
pKd: 3.48
